- target: human Hsp90α (Homo sapiens, UniProt P07900)
- test details: Hsp90α binding, SPA competition with [allyl-3H]-17-AAG
- study conditions: biotinylated Hsp90α on streptavidin beads, competition with [allyl-3H]-17-AAG, 2-4 h room temperature, pH 7.0; read-out: Hsp90α Binding (Kd (μM))
- From the text: Truncated (Carreras et al. Anal. Biochem. 2003, 317, 40-46) and full-length forms of human Hsp90 were expressed in E. coli with N-terminal polyHis and biotinylation recognition sequence (BRS) tags to facilitate purification and SPA assay, respectively. […] The 3′ end of the gene contained a BamHI site, adding a single proline residue to the C-terminus. […]
Quick reference for Kd among some compounds
Your answer is read as µM, so omit the unit and give the number.

CO[C@H]1/C=C\C=C(/C)C(=O)NC2=CC(=O)C(N[C@@H]3C(O)O[C@@H](CO)[C@H](O)[C@H]3O)=C(C[C@@H](C)C[C@H](OC)[C@H](O)[C@@H](C)/C=C(\C)[C@@H]1OC(N)=O)C2=O (stereo partly drawn) [Compound 1] :: 0.5
CO[C@H]1/C=C\C=C(/C)C(=O)NC2=CC(=O)C(NCC[N+](C)(C)[O-])=C(C[C@@H](C)C[C@H](OC)[C@H](O)[C@@H](C)/C=C(\C)[C@@H]1OC(N)=O)C2=O [Compound 4] :: 0.6
CO[C@H]1/C=C\C=C(/C)C(=O)NC2=CC(=O)C(NCC[N+](C)(C)C)=C(C[C@@H](C)C[C@H](OC)[C@H](O)[C@@H](C)/C=C(\C)[C@@H]1OC(N)=O)C2=O [Compound 3] :: 0.3
CO[C@H]1/C=C\C=C(/C)C(=O)NC2=CC(=O)C(NC[C@@H]3OC(O)[C@@H](O)[C@H](O)[C@H]3O)=C(C[C@@H](C)C[C@H](OC)[C@H](O)[C@@H](C)/C=C(\C)[C@@H]1OC(N)=O)C2=O (stereo partly drawn) [Compound 2] :: 0.2

q: // Input: CO[C@H]1/C=C\C=C(/C)C(=O)NC2=CC(=O)C(NCCOCCOCCOCCNC(=O)CCCC[C@@H]3SC[C@@H]4NC(=O)N[C@@H]43)=C(C[C@@H](C)C[C@H](OC)[C@H](O)[C@@H](C)/C=C(\C)[C@@H]1OC(N)=O)C2=O [Compound 6] . Output its Kd only.
a: 1.1

q: // Input: CO[C@H]1/C=C\C=C(/C)C(=O)NC2=CC(=O)C(NCCC(=O)O)=C(C[C@@H](C)C[C@H](OC)[C@H](O)[C@@H](C)/C=C(\C)[C@@H]1OC(N)=O)C2=O [Compound 7] . Output its Kd only.
a: 1.1

---

- target: human Hsp90α (Homo sapiens, UniProt P07900)
- test details: Hsp90α binding, SPA competition with [allyl-3H]-17-AAG
metric: Kd (nM)
Your answer is read as nM, so omit the unit and give the number.

CO[C@H]1/C=C\C=C(/C)C(=O)NC2=CC(=O)C(NCCCP(=O)(O)O)=C(C[C@@H](C)C[C@H](OC)[C@H](O)[C@@H](C)/C=C(\C)[C@@H]1OC(N)=O)C2=O :: 900

Now consider the entry below.
q: // Input: CO[C@H]1/C=C\C=C(/C)C(=O)NC2=CC(=O)C(NCCP(=O)(O)O)=C(C[C@@H](C)C[C@H](OC)[C@H](O)[C@@H](C)/C=C(\C)[C@@H]1OC(N)=O)C2=O . Output its Kd only.
a: 600

Attribution: patent US7378407B2
